Source: patent US11413278B2

System: WI-38 cells
Assay: Propidium iodide (PI) cell-death imaging upon H2O2 stress
Type: cell-based, human
Settings: 10 uM; w/H2O2, 3 hrs/4 hrs/5 hrs; YES/NO
quantity-name: Assay 7: H2O2-resistant, at 10 uM, validated by propidium iodide (PI) cell-death imaging

// known answers, use as guide
>  <smiles-record>
O=C(c1ccc([N+](=O)[O-])o1)N1CCc2ccccc21

>  <experimental-result>
YES

$$$$
>  <smiles-record>
COc1cc2c(no[n+]2[O-])n2nnnc12

>  <experimental-result>
YES

$$$$
>  <smiles-record>
CC(C)(C)c1ccc(OCC(=O)Nc2ccc3c4c(cccc24)C(=O)NC3=O)cc1

>  <experimental-result>
YES

$$$$
>  <smiles-record>
CCc1ccc(Oc2nc3ccccn3c(=O)c2/C=C(\C#N)C(=O)NCc2ccco2)cc1

>  <experimental-result>
YES

$$$$

# input Recorded Assay 7: H2O2-resistant, at 10 uM, validated by propidium iodide (PI) cell-death imaging for Cc1cc(C)c(C(=O)/C=C/c2ccccc2F)c(O)n1 , please?
# output YES

# input Recorded Assay 7: H2O2-resistant, at 10 uM, validated by propidium iodide (PI) cell-death imaging for O=C(NCc1cccnc1)/C(=C/c1ccc(-c2ccc(Cl)cc2)o1)S(=O)(=O)c1ccccc1 , please?
# output YES

# input Recorded Assay 7: H2O2-resistant, at 10 uM, validated by propidium iodide (PI) cell-death imaging for Cc1ccc(NC(=O)c2ccc([N+](=O)[O-])o2)cc1C , please?
# output YES

# input Recorded Assay 7: H2O2-resistant, at 10 uM, validated by propidium iodide (PI) cell-death imaging for CCCN1C/C(=C\c2ccc(F)cc2)C(=O)/C(=C/c2ccc(F)cc2)C1 , please?
# output YES

# input Recorded Assay 7: H2O2-resistant, at 10 uM, validated by propidium iodide (PI) cell-death imaging for COc1ccc(C(=O)/C=C/c2ccc(F)cc2)c(OC)c1 , please?
# output YES

# input Recorded Assay 7: H2O2-resistant, at 10 uM, validated by propidium iodide (PI) cell-death imaging for N=C1S/C(=C\c2cn(-c3ccccc3)nc2-c2cccs2)C(=O)N1c1nccs1 , please?
# output YES

---

Listed here are molecules together with their documented O = Potential toxicity.
System: WI-38 cells
Experiment: Long-term effects on cell viability (5 days, ATP; morphology, PI imaging)
Type: cell-based
Conditions: human, 5 days, 10 μM
Number, no unit, nothing else.

>  <smiles-record>
CCCC(=O)Nc1ccc(-c2cn3cccc(C)c3n2)cc1

>  <experimental-result>
0

$$$$
>  <smiles-record>
O=C(Nc1ccc(Cl)c(Cl)c1)c1ccc([N+](=O)[O-])o1

>  <experimental-result>
1

$$$$
>  <smiles-record>
O=C(NCc1cccnc1)/C(=C/c1ccc(-c2ccc(Cl)cc2)o1)S(=O)(=O)c1ccccc1

>  <experimental-result>
0

$$$$
>  <smiles-record>
COc1ccc(C(=O)/C=C/c2ccccc2Br)c(OC)c1

>  <experimental-result>
0

$$$$
>  <smiles-record>
CNC(=O)/C(C#N)=C/c1c(Oc2ccc(C(C)(C)C)cc2)nc2ccccn2c1=O

>  <experimental-result>
0

$$$$

# input Recorded O = Potential toxicity for O=C1NCCCc2cc(Cl)sc21 , please?
# output 0

# input Recorded O = Potential toxicity for COc1cccc(/C=C2\CN(C)C/C(=C\c3cccc(OC)c3OC)C2=O)c1OC , please?
# output 1

# input Recorded O = Potential toxicity for Cc1cc(N)n(-c2ccccc2C(=O)O)n1 , please?
# output 0

# input Recorded O = Potential toxicity for NS(=O)(=O)c1ccc(NC(=O)c2ccc([N+](=O)[O-])o2)cc1 , please?
# output 0

# input Recorded O = Potential toxicity for O=C(Nc1cccc(Cl)c1)c1ccc([N+](=O)[O-])o1 , please?
# output 1
